- Tested system: T1, peanut allergen Ara h 8 (peanut (Arachis hypogaea))
- T1 construct: ImmunoCAP component F352; also called F352
- Experimental protocol: ImmunoCAP, hybridoma supernatant
Readout type: ImmunoCAP kUA/L (kUA/L)

Binder	Uom	Numeric readout
human IgE mAb 21C10 (antibody, V domains shown, human IgE from hybridoma) VH: EVQLVESGGGLVKPGGSLRLSCAASGFILSRSSMSWVRQAPGKGLEWVSYISSTSSHIYYADSLKGRFTISRDNTENSVYLQMSSLRAEDTGVYYCARKTNGAWFLDLWGRGTLVTVSS VL: QSVLTQPPSVSGAPGQRVTISCTGSSSNIGAGSDVHWYQQFPGSAPHVLIYGNNQRPSGVPDRFSASKSGTSASLAITGLQADDEADYYCQSYDYDLSGSWVFGGGTKLTVL	kUA/L	0.53
human IgE mAb 7B6 (antibody, V domains shown, human IgE from hybridoma) VH: QVQLQQWGAGLLKPSETLSLTCAVYGGSFNGYYWSWIRQPPGKGLEWIGEIDHSGSTNYNSSLKSRVTISVDTSKNQFSLKLSSVTAADTAVYYCARRRIGSLLKYFQDWGQGTLVTVSS VL: SYELTQPPSVSVSPGQTASITCSGDKLGDSYVCWYQLKPGQSPVLVIYQDTKRPSGIPERFSGSNSGNTATLTISETQAMDEADYYCQAWDTTTDWVFGGGTKLTVL	kUA/L	0.29
human IgE mAb 3B7 (antibody, V domains shown, human IgE from hybridoma) VH: QVQLVQSGSELKKPGASMKVSCKASGYTFTNYAMNWVRQAPGQGLEWMGWINTNTGKPTYAQGFTGRFVFSLDTSVSMAYLQISSLEAGDTAVYFCARGESLAALGSFAYWGQGTLVTVSS VL: DIQMTQSPSSLSASVGDRVTITCRASQSINSYLAWYQQKPGKAPNLLIYAASNLQSGVPSRFSGSGSGTDFTLTISSLQPEDFATYYCQQSSSTFWTFGQGTKVEIK	kUA/L	0.42
human IgE mAb 38B7 (antibody, V domains shown, human IgE from hybridoma) VH: QVQLVESGGGVVQPGRSLRLSCVGSGFTFRRDAKYWVRQAPGKGLEWVAAISHDGGEEDYAESVKGRFTISRDNSRETVYLEMNSLRPEDTAVYYCATTRSGWYFDYWGQGALVTVSS VL: EIVLTQSPATLSLSPGARATLSCRASQSVDTYLAWYQQRRGQSPRLLIYDASKRATGIPARFSGSGSGTDFTLTISSLEPEDFAVYYCQQRNNWRTWTFGQGTKVEIN	kUA/L	0.15
human IgE mAb 3C3 (antibody, V domains shown, human IgE from hybridoma) VH: QLQLQESGPGLVKPSETLSLTCSISGASINSDDYYWGWIRQAPGEALEWIASIDASGTTFYNPSLRSRVTISVDTSTNQISLRLNSVTAADTAIYYCARRKTYYDFLTDYYNWYFDVWGRGTLVTVSS VL: QSALTQPRSVSGSPGQSVTFSCTGINSDIRDYDYVSWYQQHPGEAPKLIIYDVTKRASGVPSRFSGSKSGNTASLTISGLQAEDEADYYCCSYSVTYSFEVFGTGTQVSVL	kUA/L	0.51
human IgE mAb 26A5 (antibody, V domains shown, human IgE from hybridoma) VH: QVQLVQSGSELRKPGASVKVSCKASGYTFTKYGMNWVRQAPGQGLEWMGWINTNTAKPTYAQDFTGRFVFSLDTSVNTAYLEISGLKAEDTAVYYCATDGSEGSWGQGTLVTVSS VL: DIQMTQSPSTLSASVGDRVTITCRASQSIGTWLAWHQQKPGTAPKVLIYKASNLKSGVPSRFSGSGSGTDFTLTISSLQPDDVATYYCQQYNTYSGTFGQGTRVEIK	kUA/L	0.15
